Molecular target: RPA (CBP-Rfa1, Rfa2, Rfa3) (Saccharomyces cerevisiae, UniProt P22336;P26754;P26755 1-621;1-273;1-122)
Sequence (P22336 whole entry, chain 1 of 3): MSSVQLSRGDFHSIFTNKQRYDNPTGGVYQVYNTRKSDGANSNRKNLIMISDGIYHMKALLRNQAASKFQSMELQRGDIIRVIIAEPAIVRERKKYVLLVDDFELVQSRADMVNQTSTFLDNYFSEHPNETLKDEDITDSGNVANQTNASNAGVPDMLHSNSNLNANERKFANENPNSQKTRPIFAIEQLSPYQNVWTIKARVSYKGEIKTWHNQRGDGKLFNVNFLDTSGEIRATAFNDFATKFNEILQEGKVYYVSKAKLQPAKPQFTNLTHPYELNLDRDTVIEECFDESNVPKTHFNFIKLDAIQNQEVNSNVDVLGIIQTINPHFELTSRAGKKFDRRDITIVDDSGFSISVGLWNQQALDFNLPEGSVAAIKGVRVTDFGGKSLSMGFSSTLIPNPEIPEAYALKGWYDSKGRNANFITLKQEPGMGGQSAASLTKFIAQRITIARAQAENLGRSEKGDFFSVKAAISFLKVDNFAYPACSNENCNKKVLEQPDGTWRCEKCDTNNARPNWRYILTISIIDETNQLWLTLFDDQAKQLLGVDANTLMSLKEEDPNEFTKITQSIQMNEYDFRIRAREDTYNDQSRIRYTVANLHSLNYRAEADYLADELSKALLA
Sequence (P26754 whole entry, chain 2 of 3): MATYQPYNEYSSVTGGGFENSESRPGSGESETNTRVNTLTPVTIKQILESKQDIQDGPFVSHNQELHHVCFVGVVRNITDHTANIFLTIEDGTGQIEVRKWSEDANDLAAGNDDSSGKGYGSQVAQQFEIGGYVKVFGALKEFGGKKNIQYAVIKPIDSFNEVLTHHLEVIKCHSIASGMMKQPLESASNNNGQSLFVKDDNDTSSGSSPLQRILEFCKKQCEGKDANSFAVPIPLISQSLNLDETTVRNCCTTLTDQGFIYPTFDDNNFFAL
Sequence (P26755 whole entry, chain 3 of 3): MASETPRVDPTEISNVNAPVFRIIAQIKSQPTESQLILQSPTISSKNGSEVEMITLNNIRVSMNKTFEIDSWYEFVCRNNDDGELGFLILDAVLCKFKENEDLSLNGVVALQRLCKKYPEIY
Test: fluorescence anisotropy; 0.5 M NaCl; apparent Kd, Hill coefficient 2.460; 30 mM HEPES pH 7.5, 30 mM NaCl, 0.25 mM EDTA, 10% glycerol, 0.01% NP-40, 1 mM DTT, plus 0.5 M NaCl for dT30 (no supplemental NaCl for dT60), 2.5 nM DNA, room temperature, 30 min
Settings: protein: recombinant; tags: CBP on Rfa1; copies: 1;1;1; label: 6-FAM; single strand
attributeMeasured: pKd
Numbers only, as −log10 of the molar value.

Name the recorded pKd for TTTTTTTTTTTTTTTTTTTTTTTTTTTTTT (ssDNA) [6-FAM-oligo-dT30] . 8.76

Values compiled from paper PMC10602884.
